Target: T1, Human PD-1 expressed on CHO-K1 cells (CHO-K1/hPD-1) (human, UniProt Q15116 25-288)
T1 construct: whole, on cells; also called CHO-K1 cells overexpressing human PD-1
T1 sequence (Q15116 25-288): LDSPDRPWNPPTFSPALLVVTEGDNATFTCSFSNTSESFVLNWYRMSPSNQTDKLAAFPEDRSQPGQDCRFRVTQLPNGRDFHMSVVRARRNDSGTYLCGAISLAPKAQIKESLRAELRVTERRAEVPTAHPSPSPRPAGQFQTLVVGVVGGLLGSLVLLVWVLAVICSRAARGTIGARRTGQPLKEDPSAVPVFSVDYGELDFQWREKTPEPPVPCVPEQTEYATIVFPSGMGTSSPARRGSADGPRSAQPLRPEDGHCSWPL
Assay: FACS, CHO-K1/hPD-1 cells
measured-quantity: Maximum (MFI)

PR002481 (antibody, human IgG1, V domains shown, Heavy-chain-only antibody (HCAb), human IgG1 Fc; two heavy chains, no light chain; also called R4004P556D1; anti-PD1 R4004P556D1 HCAb hG1) VH: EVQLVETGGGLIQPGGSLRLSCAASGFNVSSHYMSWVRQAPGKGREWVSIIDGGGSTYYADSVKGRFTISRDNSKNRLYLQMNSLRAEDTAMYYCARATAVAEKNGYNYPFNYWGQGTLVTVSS ... 2.63e+06
PR005574 (antibody, human IgG1, V domains shown, no light chain; also called anti-PD1 PR002481R2M1_F1 HCAb hIgG1) VH: EVQLVETGGGLIQPGGSLRLSCAASGFNVSSHYMSWVRQAPGKGREWVSIIDKAGSGYYADSVKGRFTISRDNSKNRLYLQMNSLRAEDTAMYYCARATEVREKQGYNYPFNYWGQGTLVTVSS ... 2.82e+06
PR005570 (antibody, human IgG1, V domains shown, no light chain; also called anti-PD1 PR002481R2M1_H3 HCAb hIgG1) VH: EVQLVETGGGLIQPGGSLRLSCAASGFNVSFYYMSWVRQAPGKGREWVSIIDKGGSTYYGDSVKGRFTISRDNSKNRLYLQMNSLRAEDTAMYYCARATEVREKNGYNYPFNYWGQGTLVTVSS ... 3.18e+06
PR005573 (antibody, human IgG1, V domains shown, no light chain; also called anti-PD1 PR002481R2M3_D1 HCAb hIgG1) VH: EVQLVETGGGLIQPGGSLRLSCAASGFNVSSHYMSWVRQAPGKGREWVSIIDKAGSGYYAASVKGRFTISRDNSKNRLYLQMNSLRAEDTAMYYCARATEVREKNGYNYPFNYWGQGTLVTVSS ... 3.08e+06
